molecular target: MDM2 (Homo sapiens); assay: fluorescence polarization assay, MDM2 binding; settings: read-out: Ki (μM) ± SD MDM2; fluorescence polarization, PMDM-F peptide, pH 7.5
MEASURED ATTRIBUTE: Ki
Note: a bare number is incomplete; add the unit.

Request: Give measured Ki for Cc1cccc(S(=O)(=O)N2C(=O)/C(=C/c3cccc(Cl)c3)c3ccccc32)c1 (MDM2 (Homo sapiens)).
Response: 5.36 µM

Request: // fetch Ki; item: Cc1ccc(S(=O)(=O)N2C(=O)/C(=C/c3ccc(Cl)cc3)c3ccccc32)cc1 ; system: MDM2 (Homo sapiens)
Response: 4.68 µM

Request: Answer with Ki of Cc1cccc(S(=O)(=O)N2C(=O)/C(=C/c3ccc(Cl)cc3)c3ccccc32)c1 measured for MDM2 (Homo sapiens).
Response: 4.93 µM

Request: Report Ki on MDM2 (Homo sapiens) for this entry: O=C1/C(=C/c2cccc(Cl)c2)c2ccccc2N1S(=O)(=O)c1ccc(Br)cc1
Response: 0.49 µM

====

biological target: UniProtKB Q00987; assay: fluorescence polarization assay, MDM2 binding
MEASURED ATTRIBUTE: pKi
When answering, recall that pKi equals minus log10 of the concentration in mol/L, and write that number alone.

Request: Please report the measured pKi for O=C1/C(=C/c2ccccc2Cl)c2ccccc2N1S(=O)(=O)c1ccccc1
Response: 5.36

Request: Please look at this compound and report its pKi: COc1ccc(S(=O)(=O)N2C(=O)/C(=C/c3cccc(Cl)c3)c3ccccc32)cc1
Response: 5.42

Request: Tell me measured pKi for O=C1/C(=C/c2cccc(Cl)c2)c2ccccc2N1S(=O)(=O)c1ccc(F)cc1 please.
Response: 6.64

Request: Return value of pKi for input O=C1/C(=C/c2cccc(Cl)c2)c2ccccc2N1S(=O)(=O)c1ccccc1Cl , no commentary.
Response: 6.72

Request: Given the compound O=C1/C(=C/c2cccc(Cl)c2)c2ccccc2N1S(=O)(=O)c1cccc(Cl)c1 , write its reported pKi.
Response: 7.51

Request: Tell me measured pKi for Cc1cccc(S(=O)(=O)N2C(=O)/C(=C/c3ccccc3Cl)c3ccccc32)c1 please.
Response: 5.25

Request: Look up and report measured pKi for this entry: O=C1/C(=C/c2cccc(Cl)c2)c2ccccc2N1C(=O)c1ccccc1Cl
Response: 4.83

Request: Indicate its recorded pKi; the compound in question is O=C1/C(=C/c2ccc(Cl)cc2)c2ccccc2N1S(=O)(=O)c1ccccc1
Response: 5.66

====

biological target: MDM2 (Homo sapiens, UniProt Q00987); assay: fluorescence polarization assay, MDM2 binding
Sequence (Q00987 whole entry): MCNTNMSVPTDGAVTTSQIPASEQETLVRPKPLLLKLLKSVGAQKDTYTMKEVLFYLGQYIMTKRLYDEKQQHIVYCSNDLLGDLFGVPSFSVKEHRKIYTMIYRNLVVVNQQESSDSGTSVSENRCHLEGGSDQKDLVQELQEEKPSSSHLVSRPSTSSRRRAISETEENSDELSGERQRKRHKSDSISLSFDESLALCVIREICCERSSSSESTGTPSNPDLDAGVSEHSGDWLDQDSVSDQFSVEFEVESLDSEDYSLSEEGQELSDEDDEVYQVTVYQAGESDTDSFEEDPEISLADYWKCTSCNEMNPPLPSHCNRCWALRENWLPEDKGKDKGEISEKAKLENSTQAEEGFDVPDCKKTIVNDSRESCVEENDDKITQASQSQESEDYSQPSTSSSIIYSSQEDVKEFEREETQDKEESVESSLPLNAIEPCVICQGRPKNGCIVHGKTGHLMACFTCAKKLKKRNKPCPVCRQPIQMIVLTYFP
pKi: −log10 of the molar value.
Criterion: pKi meeting or surpassing 5. Met: class 1. Not met: class 0.

Request: Check if pKi >= 5 (inclusive). Item: Cc1ccc(C(=O)N2C(=O)/C(=C/c3ccccc3Cl)c3ccccc32)cc1
Response: class 0

Request: Record Cc1ccccc1C(=O)N1C(=O)/C(=C/c2ccccc2Cl)c2ccccc21 ; criterion: pKi no lower than 5. Met?
Response: class 0

Request: Is pKi for Cc1ccc(S(=O)(=O)N2C(=O)/C(=C/c3cccc(Cl)c3)c3ccccc32)cc1 at or above 5?
Response: class 1

Request: Is pKi at least 5? Consider O=C1/C(=C/c2cccc(Cl)c2)c2ccccc2N1C(=O)c1ccc(Cl)cc1
Response: class 0

Request: # bool: pKi of O=C1/C(=C/c2cccc(Cl)c2)c2ccccc2N1S(=O)(=O)c1ccccc1F >= 5
Response: class 1
